Hey, just so you know, these numbers are from patent US20240294635A1.

- TARGET OR SYSTEM: CD47 on HL60 cells (UniProt Q08722 19-323, limits assumed)
- ASSAY SUMMARY: cell-based or functional assay
MEASUREMENT NAME: rate of phagocytosis, antibody 1 µg/mL (%)
Unit % implied. Number only.

Exam item: I would be grateful if you could share the reported rate of phagocytosis, antibody 1 µg/mL for Xi3F10 (antibody, human IgG4 S228P, kappa, V domains shown, mouse variable regions on human IgG4 (EU S228P) and human kappa constant regions; also called chimeric 3F10 antibody) VH: EVQLQQSVAELMKPGASVKIYCKATGYTFSRYWIEWVKQRPGHGLEWIGEFIPGSDTTNFNEKFKGKATFTAEISSNTAYMQLSSLTSEDSAVYFCARGGLRRMDYWGQGTSVTVSS VL: DIVMTQTPAIMSASPGEKVTMTCRASSSVSSTYLHWYQQKSGASPKLWIYTTSTLASGVPARFSGSGSGTSYSLTISSVEAEDAATYYCQQFSDSTWTFGGGTKLEIKR .
Marked response: 65.7

Exam item: Please look up its rate of phagocytosis, antibody 1 µg/mL: Xi16E5 (antibody, human IgG4 S228P, kappa, V domains shown, mouse variable regions on human IgG4 (EU S228P) and human kappa constant regions; also called chimeric 16E5 antibody) VH: EVQLQQSGPELKKPGETVKISCKASGYTFTNYGMNWVKQVPGKGLKWMGWINTNTGEPTYAEEFKGRFAFSLETSARTAFLQINNLKNEDTATYFCTRFSHLRGPMDYWGQGASVTVSS VL: DAVMTQTPLSLPVSLGDQASISCRSSQSLVHSNGYTYLHWYLQKPGQSPKLLIYKVSNRFSGVPDRFSGSGSGTDFTLKISRLEAEDLGVYFCSQSTHVPPTFGGGTKLEIKR
Marked response: 11.5

Exam item: May I ask what rate of phagocytosis, antibody 1 µg/mL has been recorded for Xi2H8 (antibody, human IgG4 S228P, kappa, V domains shown, mouse variable regions on human IgG4 (EU S228P) and human kappa constant regions; also called chimeric 2H8 antibody) VH: QVQLKESGPGLVAPSQSLSITCTVSGFSLTNYGVHWVRQPPGKGLEWLGIIWAGGSTNYNSALMSRLSISKDNSKSQVFLKMNSLQTDDTAMYYCARDDYASMDYWGQGTSVTVSS VL: DAFMTQTPLSLPVSLGDQASISCRSSQSLVHSNGNTYLHWYLQKPGQSPKLLIYKVSNRFSGVPDRFSGSGSGTDFTLKISRVEAEDLGVYFCSQSTHVPYTLGGGTKLEIKR ?
Marked response: 7.1

Further cases:
Exam item: Any idea what its rate of phagocytosis, antibody 1 µg/mL is? The binder is Xi14A9 (antibody, human IgG4 S228P, kappa, V domains shown, mouse variable regions on human IgG4 (EU S228P) and human kappa constant regions; also called chimeric 14A9 antibody) VH: EVQLQQSGAEVARPGASVKLSCTVSGFNIEDDYIEWVKQRPEQGLEWIGRIDPANDKTKYAPKFQDKATITGDTSSNTAYLQLSSLTSEDTAVYYCTRPGLRRYYSMDYWGQGTSVTVSS VL: NIVLTQSPKSMSMSVGERVTLSCKASENVVSYVSWYQQKPEQSPKLLIYGASNRYTGVPDRFIGSGSSTDFTLIISSFQPEDLADYHCGQSYSYPLTFGAGTKLELKR
Marked response: 54.2
